target of assay: PARP-1 enzyme (Homo sapiens, UniProt P09874)
Construct: made in house
Sequence (P09874 whole entry): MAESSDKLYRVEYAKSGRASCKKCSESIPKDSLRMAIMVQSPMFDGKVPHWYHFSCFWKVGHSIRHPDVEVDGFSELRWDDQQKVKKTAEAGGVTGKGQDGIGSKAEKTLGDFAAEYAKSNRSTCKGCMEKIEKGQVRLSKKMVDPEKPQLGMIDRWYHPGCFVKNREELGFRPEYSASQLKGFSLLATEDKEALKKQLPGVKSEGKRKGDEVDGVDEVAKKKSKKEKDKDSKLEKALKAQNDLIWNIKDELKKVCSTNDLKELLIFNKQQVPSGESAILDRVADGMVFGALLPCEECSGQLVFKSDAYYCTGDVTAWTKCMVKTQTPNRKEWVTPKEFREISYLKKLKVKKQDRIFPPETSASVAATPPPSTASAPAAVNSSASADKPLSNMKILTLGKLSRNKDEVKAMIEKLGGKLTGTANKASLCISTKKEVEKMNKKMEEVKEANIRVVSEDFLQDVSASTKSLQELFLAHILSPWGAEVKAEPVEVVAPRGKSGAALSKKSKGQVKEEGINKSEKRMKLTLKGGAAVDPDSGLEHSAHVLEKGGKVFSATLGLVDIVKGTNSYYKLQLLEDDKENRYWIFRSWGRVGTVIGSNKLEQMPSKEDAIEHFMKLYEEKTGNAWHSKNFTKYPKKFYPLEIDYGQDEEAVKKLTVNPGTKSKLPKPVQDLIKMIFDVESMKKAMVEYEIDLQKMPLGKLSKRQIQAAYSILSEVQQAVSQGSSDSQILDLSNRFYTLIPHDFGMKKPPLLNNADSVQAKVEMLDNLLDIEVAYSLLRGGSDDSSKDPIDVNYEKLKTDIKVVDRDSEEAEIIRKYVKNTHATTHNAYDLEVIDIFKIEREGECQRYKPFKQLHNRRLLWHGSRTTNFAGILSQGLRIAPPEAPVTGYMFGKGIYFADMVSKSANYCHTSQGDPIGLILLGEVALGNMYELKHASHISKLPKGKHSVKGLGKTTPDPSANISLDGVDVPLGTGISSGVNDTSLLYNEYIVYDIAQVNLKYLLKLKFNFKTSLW
experiment: In vitro Scintillation Proximity Assay (SPA) for PARP-1 inhibitory activity
Format: biochemical
details: nicked DNA activated PARP-1, [3H]-NAD+, biotinylated histones; read-out: In vitro SPA pIC50 (converted)
Protocol: Compounds of the present invention were tested in an in vitro assay based on SPA technology (proprietary to Amersham Pharmacia Biotech). […] As inducer of PARP-1 enzyme activity, nicked DNA was prepared. […] The beads were allowed to sediment for at least 15 min. and plates transferred to a TopCountNXT™ (Packard) for scintillation counting, values were expressed as counts per minute (cpm). […] For each sample, the amount of cpm was expressed as a percentage of the mean cpm value of the controls. […]
Entries and their log10 of IC50
Transform log10 | Measure IC50 | Unit nM

Previously resolved entries follow.
CCc1nc2ccc(C(c3cccc(F)c3)n3ccnc3)cc2[nH]c1=O (stereo not drawn)	2.86
CCc1nc2ccc(CC(c3ccc(Cl)cc3)n3ccnc3)cc2[nH]c1=O (stereo not drawn)	2.52
Cc1nc2ccc(C(c3ccc(C(C)C)cc3)n3ccnc3)cc2[nH]c1=O (stereo not drawn)	2.61
CCc1nc2ccc(C(c3ccccc3)n3ccnc3)cc2[nH]c1=O (stereo not drawn)	2.36

Return reported log10 of IC50 for target or system PARP-1 enzyme (Homo sapiens, UniProt P09874), item CCc1nc2ccc(CC(c3ccc(Cl)cc3)N3CCCC3)cc2[nH]c1=O (stereo not drawn) .
2.77

Return reported log10 of IC50 for target or system PARP-1 enzyme (Homo sapiens, UniProt P09874), item CCc1nc2ccc(C(c3ccc(F)cc3)n3ccnc3)cc2[nH]c1=O (stereo not drawn) .
3.00

Return reported log10 of IC50 for target or system PARP-1 enzyme (Homo sapiens, UniProt P09874), item CCc1nc2ccc(C(c3ccccc3)N3CCC(NCCOC)CC3)cc2[nH]c1=O (stereo not drawn) .
0.88

Return reported log10 of IC50 for target or system PARP-1 enzyme (Homo sapiens, UniProt P09874), item CCc1nc2ccc(CC(c3ccccc3)n3ccnc3)cc2[nH]c1=O (stereo not drawn) .
2.31

Return reported log10 of IC50 for target or system PARP-1 enzyme (Homo sapiens, UniProt P09874), item CCc1nc2ccc(C(c3ccccc3F)n3ccnc3)cc2[nH]c1=O (stereo not drawn) .
2.86

Return reported log10 of IC50 for target or system PARP-1 enzyme (Homo sapiens, UniProt P09874), item CCc1nc2ccc(CC(O)c3ccccc3)cc2[nH]c1=O (stereo not drawn) .
2.96

Return reported log10 of IC50 for target or system PARP-1 enzyme (Homo sapiens, UniProt P09874), item CCc1nc2ccc(CC(O)c3ccc(Cl)cc3)cc2[nH]c1=O (stereo not drawn) .
2.74

Return reported log10 of IC50 for target or system PARP-1 enzyme (Homo sapiens, UniProt P09874), item CCc1nc2ccc(C(NCCCN(C)Cc3ccccc3)c3ccccc3)cc2[nH]c1=O (stereo not drawn) .
2.49

###

target of assay: PARP-1 enzyme (Homo sapiens)
Construct: made in house
experiment: In vitro Scintillation Proximity Assay (SPA) for PARP-1 inhibitory activity
Format: biochemical
details: nicked DNA activated PARP-1, [3H]-NAD+, biotinylated histones; read-out: In vitro SPA pIC50 (converted)
Entries and their IC50
Don't forget the unit after the number, please.

Previously resolved entries follow.
CCc1nc2ccc(C(c3ccccc3)c3cccnc3)cc2[nH]c1=O (centres unmarked)	0.577 µM
Cc1nc2ccc(C(c3ccc(Cl)cc3)n3ccnc3)cc2[nH]c1=O (centres unmarked)	4.11 µM
CCOC(=O)C1CCN(C(c2ccc(Cl)cc2)c2ccc3nc(CC)c(=O)[nH]c3c2)CC1 (centres unmarked)	0.818 µM
CCc1nc2ccc(C(c3ccccc3)n3cccn3)cc2[nH]c1=O (centres unmarked)	1.6 µM

Next compound, please.
Fill in reported IC50 for this entry: Cc1cc2ccc(C(CCN(C)C)c3ccccc3)cc2[nH]c1=O (centres unmarked)
0.899 µM

###

Entries and their IC50
target of assay: PARP-1 enzyme (Homo sapiens, UniProt P09874)
Construct: made in house
experiment: In vitro filtration assay for PARP-1 inhibitory activity
Assay type: biochemical
details: nicked DNA activated PARP-1, [32P]-NAD+, histones; read-out: In vitro filtration assay pIC50 (converted)
Numeric only. Scale: µM

Previously resolved entries follow.
CCc1nc2ccc(C(c3ccccc3)n3ccnc3)cc2[nH]c1=O (stereo not drawn)	0.615
CCc1nc2ccc(C(c3ccc(F)cc3)n3ccnc3)cc2[nH]c1=O (stereo not drawn)	4.13
CCc1nc2ccc(CC(c3ccc(Cl)cc3)n3ccnc3)cc2[nH]c1=O (stereo not drawn)	6.38
CCc1nc2ccc(C(c3ccccc3)c3cccnc3)cc2[nH]c1=O (stereo not drawn)	4.53

Next molecule, please.
Fill in reported IC50 for this entry: CCc1nc2ccc(C(c3ccccc3)n3cccn3)cc2[nH]c1=O (stereo not drawn)
2.67

###

target of assay: PARP-1 enzyme (Homo sapiens, UniProt P09874)
Construct: made in house
experiment: In vitro Scintillation Proximity Assay (SPA) for PARP-1 inhibitory activity
Type: biochemical
details: nicked DNA activated PARP-1, [3H]-NAD+, biotinylated histones; read-out: In vitro SPA pIC50 (converted)
recorded metric: IC50

Previously resolved entries follow.
CCc1nc2ccc(C(O)c3ccccc3)cc2[nH]c1=O (stereo not drawn)	409 nM
CCc1nc2ccc(C(c3ccc(Cl)cc3)N3CCCCC3)cc2[nH]c1=O (stereo not drawn)	236 nM

Return reported IC50 for target or system PARP-1 enzyme (Homo sapiens, UniProt P09874), item CCc1nc2ccc(C(c3ccccc3)n3cncn3)cc2[nH]c1=O (stereo not drawn) .
334 nM
